// data source = the supplement of paper PMC9170038

System: MS2 coat protein
test method notes: apparent KD of MS2 coat protein; designed switch direction (-1 OFF switch, 1 ON switch): -1; higher = weaker reporter binding
experimental setup: input ligand: none
value type: apparent KD of MS2 coat protein

UUAAUUUGAGGAUAUACUAUUAACCACAUGAGGAUCACCCAUGUUCUAUCAUGUAUAUGUGUAGAAGGCAGAAUGC [JR_Ex5_Sub071] (Eterna round: R97, puzzle: Exclusion 5); 0.0507 µM
CAACAGGGAGGAUAUACAUGAGGAUCACCCAUGUUCGAGCGUCCUUGAACUACCUCUGGUAGAAGGCCCACACG [Bibiorbi] (Eterna round: R97, puzzle: Exclusion 3); 0.0569 µM
GUGGUUCCUGUCAGGAUAUACGCGGACCACCACCUGUAGAAGGGACAUGAGGAUCACCCAUGUUUUCCAAAGCG [Eternabot (L2) Solution 80] (Eterna round: R97, puzzle: Brourd's mod of Exclusion 4); 0.013 µM
AUACAGGAUGUCAGGAUAUGUUGUAGGUUCCGACGACAGAAGGGACAUGAGGAUCACCCAUGUAGGCCUUUGCU [BmEX4 C.7] (Eterna round: R97, puzzle: Brourd's mod of Exclusion 4); 0.0151 µM
AUCAGCUCGUGAGGAUAUAUUAACAUGAGGAUCACCCAUGUAAGAUCAGGCUUCGGCCAAUGUUAAUAGAAGGCACGAGCUGAU [ENG2/12-A2] (Eterna round: R96, puzzle: Exclusion NG 2); 0.17 µM

MS2 coat protein apparent KD of MS2 coat protein of CUUAAUUGUCAGAUGGGUGACAUGAGGAUCACCCAUGUCACAAGCUUUUUGCUCGUCUUAUAAUUAACCCAUCUGAC [Stov1/11-A4] (Eterna round: R97, puzzle: Sensor, turn-off variant 1) is 0.0134 µM

MS2 coat protein apparent KD of MS2 coat protein of GCUGGUCGAGGAUAUAUAUGACGUGCUUCGGCACGAAGAUCACAUGAGGAUCACCCAUGUAGAAGGCGACCAGC [E2/8-A1] (Eterna round: R97, puzzle: Exclusion 2) is 0.156 µM

MS2 coat protein apparent KD of MS2 coat protein of CACGUGAGAGGAUAUACAUGAGGAUCACCCAUGUAUACAGCAGGGUAUGAAGACUUGGGUAGAAGGCUCGCGUG [Eternabot (L2) Solution 39] (Eterna round: R97, puzzle: Exclusion 3) is 0.27 µM

MS2 coat protein apparent KD of MS2 coat protein of GUGAUCUAUCAUGGGAUAAACAUGAGGAUCACCCAUGUAAACAAGUUUUUUGCUCGUCUUAUAAUAAGAUAGAUCAC [Antenna 2 - Jieux - Sensor, turn-off variant 1] (Eterna round: R97, puzzle: Sensor, turn-off variant 1) is 0.0209 µM

MS2 coat protein apparent KD of MS2 coat protein of GGAAUACCCUCGAGUUAUCACAUGAGGAUCACCCAUGUCCCAAGCCUUUUGCUCUGAGCUGCGUAUACGCAGAUGUA [Eternabot (Original) Solution 23] (Eterna round: R97, puzzle: Sensor, turn-off variant 1) is 0.128 µM

MS2 coat protein apparent KD of MS2 coat protein of ACAGUGUUAGGAUAUGUGUGAGUUAGUCUCGACUAGUCGAUGCAGAAGGAACAUGAGGAUCACCCAUGUAGAUC [EX4 #80] (Eterna round: R97, puzzle: Exclusion 4) is 0.064 µM
